All values here come from the supplement of paper PMC6805474.

tested on: Schistosoma mansoni schistosomula (NMRI); experiment: phenotypic severity score (0-4); higher = more antischistosomal effect, active = 2 or more; details: 24 h; 10 µM
Hi! Could you answer with just one of these? true (1) = active, false (0) = inactive

Study these solved cases before continuing.
compound	assigned.category
c1cncc(NCc2ccc(-c3cc4ccncc4cc3OC3CCNCC3)s2)c1	true (1)
CC1CS(=O)(=O)CCN1/N=C/c1ccc([N+](=O)[O-])o1 (stereo unspecified)	false (0)
CCCCS(=O)(=O)Nc1ccc2cnn(C)c2c1	false (0)
CC(C)c1ncc(-c2ccncc2)c([C@H]2CC[C@H](CNC(=O)c3cccnc3)CC2)n1	false (0)
COc1ccc(Oc2ccc([C@@H](C)N(C)c3ncc4c(N)nc(N)nc4n3)cc2)cc1	true (1)

Hi, sorry to bother you, what did the test record for FC(F)(F)c1cc(NCCc2ccccc2)nc(-c2ccccn2)n1 ?
false (0)

Hi, sorry to bother you, what did the test record for Nc1ncnc2c1ncn2C[C@@H](O)[C@@H](O)C(=O)O ?
false (0)

Hi, sorry to bother you, what did the test record for c1ccc(Oc2ccc(-c3cc(C4CCOCC4)[nH]n3)cc2)cc1 ?
false (0)

Hi, sorry to bother you, what did the test record for COc1cc(C(F)(F)F)nc2ccc(C)c(N)c12 ?
false (0)

Hi, sorry to bother you, what did the test record for CN1CCC(c2cc(-c3ccncc3)c(-c3ccc(F)cc3)[nH]2)CC1 ?
false (0)

Hi, sorry to bother you, what did the test record for CCOc1ccc2cc(-c3nn(C(C)(C)C)c(N)c3C(N)=O)cnc2c1 ?
false (0)

----------
tested on: Schistosoma mansoni schistosomula (Liberian); test: drug effect (1 - score/DMSO control score) (fraction); higher = more antischistosomal effect, active = 0.5 or more; extreme values may be limits of the assay; conditions: 48 h; 10 µM
Hi! Could you answer with just one of these? active, inactive

Study these solved cases before continuing.
smiles	assigned.category
CO[C@@H](C(=O)N1Cc2[nH]nc(NC(=O)c3ccc(N4CCN(C)CC4)cc3)c2C1)c1ccccc1	inactive
COc1cc(-c2cc(-c3ccc(S(C)(=O)=O)cc3)cnc2N)ccc1O	inactive
Cc1cc(OCC(=O)Nc2ccc(C(C)C)cc2)n(C)c(=O)c1C#N	inactive
Cc1ccccc1CN1CCC(O)(c2ccc(Cl)c(C(F)(F)F)c2)CC1	inactive
CN1CCN(c2nccc3[nH]c(-c4cccc(F)c4)cc23)CC1	inactive

Hi, sorry to bother you, what did the test record for COc1ccc(OC)c(NCc2ccc3nc(N)nc(N)c3c2Cl)c1 ?
inactive

Hi, sorry to bother you, what did the test record for COc1ccc(C2=NN(C3CCCCCC3)C(=O)[C@@H]3CC=CC[C@H]23)cc1OCCCCOc1ccc(-c2nn[nH]n2)cc1 ?
active

Hi, sorry to bother you, what did the test record for CCc1c(C)nc(-n2nc(C)cc2NC(=O)c2ccccc2SC)[nH]c1=O ?
active

Hi, sorry to bother you, what did the test record for COc1ccc(Cl)cc1NC(=O)CN(C)C(=O)c1cnn(-c2ccccc2)n1 ?
inactive

Hi, sorry to bother you, what did the test record for O=C(NCc1cc(Cl)cc(Cl)c1)c1c(C(F)(F)F)nc2ccccn12 ?
inactive

----------
tested on: Schistosoma mansoni schistosomula (NMRI); assay: phenotypic severity score (0-4); higher = more antischistosomal effect, active = 2 or more; details: 24 h; 10 µM
Hi! Could you answer with just one of these? active, inactive

Study these solved cases before continuing.
molecule	assigned.category
COc1ccc(CCN2CCC(NCc3cccc(N(C)C)c3)CC2)cc1	inactive
COc1ccc(C2=NCCN2)cc1-c1cn(-c2cccc(C3=NCCN3)c2)nn1	inactive
Nc1nccc2ccc(-c3ccc4nccn4c3)cc12	active
COc1ccc2nccc(NC(=O)C3CCN(CCc4ccc(Cl)cc4)CC3)c2n1	inactive
Cc1cc(C)cc(COc2ccc3c(C)c(CCC(=O)O)c(=O)oc3c2C)c1	inactive

Hi, sorry to bother you, what did the test record for CC(C)(C)C(=O)N(CCCCCCN1C[C@H](O)[C@@H](O)[C@H](O)[C@H]1CO)C1CCCCCC1 ?
inactive

Hi, sorry to bother you, what did the test record for CCC(Sc1nc2ccccc2o1)C(=O)Nc1nccs1 (configuration not stated) ?
active

Hi, sorry to bother you, what did the test record for CCOc1ccccc1C(=O)Nc1cccc(-c2nc3ncccn3c2C)c1 ?
inactive

Hi, sorry to bother you, what did the test record for CN(C)c1cc(NC(=O)Nc2ccccc2)c2ccccc2n1 ?
inactive

Hi, sorry to bother you, what did the test record for CC(=O)N(CCN(C(=O)c1ccc(F)cc1)c1ccccc1)c1ccccc1 ?
inactive

Hi, sorry to bother you, what did the test record for Cc1ncc(-c2ccnc(Nc3ccc(S(C)(=O)=O)cc3)n2)n1C(C)C ?
inactive

Hi, sorry to bother you, what did the test record for COc1ccc(S(=O)(=O)Nc2ccc(CN3CCN(C(=O)c4cccc(C#N)c4)CC3)cc2)cc1 ?
inactive

Hi, sorry to bother you, what did the test record for Cc1cc(NC(=O)c2ccc(Oc3ccc(Cl)cc3O)o2)no1 ?
inactive

Hi, sorry to bother you, what did the test record for Cc1cc(C)n2nc(C(=O)Nc3cc(C(F)(F)F)ccc3N3CCOCC3)nc2n1 ?
inactive

Hi, sorry to bother you, what did the test record for NC(=O)c1cc(-c2ccsc2)ccc1OCCOc1ccccc1 ?
inactive

Hi, sorry to bother you, what did the test record for COc1ccc2nc(C)cc(OCC(=O)NCc3ccccc3)c2c1 ?
inactive

Hi, sorry to bother you, what did the test record for CC(C)n1ncc2c(C(=O)NCC(c3cccs3)N3CCOCC3)cc(-c3ccccc3)nc21 (configuration not stated) ?
active

Hi, sorry to bother you, what did the test record for O=C1COCc2ccc(Br)cc2N1Cc1ccc(C(F)(F)F)cc1 ?
inactive

Hi, sorry to bother you, what did the test record for Cc1ccc2[nH]c3c(NCCN(C)C)ncnc3c2c1 ?
inactive

Hi, sorry to bother you, what did the test record for O=C(Nc1cccc(Cl)c1)c1cnc(N2CCN(c3ccncc3)CC2)c(Cl)c1 ?
active

Hi, sorry to bother you, what did the test record for COc1cc(-c2cc(-c3ccc(S(C)(=O)=O)cc3)cnc2N)ccc1O ?
active

Hi, sorry to bother you, what did the test record for CC(C)(C)OC(=O)N1CCN(c2cc(-c3ccc(Oc4ccccc4)cc3)n[nH]2)CC1 ?
inactive

----------
Collected drug effect values appear next to each entry.
tested on: Schistosoma mansoni schistosomula (Liberian); assay: drug effect (1 - score/DMSO control score) (fraction); higher = more antischistosomal effect, active = 0.5 or more; extreme values may be limits of the assay; conditions: 48 h; 10 µM
I'd appreciate a reply containing only the number, no unit.

// known answers, use as guide
molecule	drug effect
COc1cc(NC(C)CCCN)c2ncccc2c1 (stereo unspecified)	0.135
CC(C)NCC(=O)Nc1cccc(C(=O)Nc2cccc(C(F)(F)F)c2)c1	0.167
CC(=O)N1CCc2cc3nc(C)cc(C)c3cc21	0.111
O=C1Nc2ccc(Br)cc2C12NCCc1c2[nH]c2ccccc12 (stereo unspecified)	0.0811
COc1ccc(-c2nc(-c3cccc(NC(=O)Cc4ccc(F)cc4)c3)no2)cc1OC	0.2
Cc1ccc2cc(C3NC(=O)c4ccccc4N3)c(Cl)nc2c1 (stereo unspecified)	0.0811
COC(=O)Nc1nc2cc(C(=O)c3ccccc3)ccc2[nH]1	0.189
CC[C@@H]([C@H](C)O)n1ncn(-c2ccc(N3CCN(c4ccc(OC[C@@H]5CO[C@@](Cn6cncn6)(c6ccc(F)cc6F)C5)cc4)CC3)cc2)c1=O	0.243
O=C(c1[nH]nc2c1CCCC2)N1CCN(Cc2ccc3c(c2)OCO3)CC1	0.25
CC1CC1C(=O)NC1CCN(CC2(c3ccccc3)CCCCC2)CC1 (stereo unspecified)	0.0811

Here is another molecule to look at.
Which measured drug effect value corresponds to Cc1ccc(Oc2ccc(NC(=O)CNc3ccccc3N3CCCC3=O)cc2)cc1 ?
0.333

----------
test system: Schistosoma mansoni schistosomula (NMRI); assay: phenotypic severity score (0-4); higher = more antischistosomal effect, active = 2 or more; conditions: 48 h; 10 µM
Hi! Could you answer with just one of these? active, inactive

Study these solved cases before continuing.
molecule	test.target	assigned.category
O=C(c1cc2ccccc2o1)N1CCN(Cc2ccc3c(c2)OCO3)CC1	Schistosoma mansoni schistosomula (NMRI)	inactive
COc1ccc(-c2nn(C(C)C)c3ncnc(N)c23)cc1OC	Schistosoma mansoni schistosomula (NMRI)	inactive
Cc1cc(NCC(C)C)c2n[nH]c(-c3ccccc3)c2n1	Schistosoma mansoni schistosomula (NMRI)	inactive

Hi, sorry to bother you, what did the test record for Cc1cc(C)n2nc(C(=O)Nc3cc(C(F)(F)F)ccc3N3CCOCC3)nc2n1 ?
inactive

Hi, sorry to bother you, what did the test record for Cc1cc(NCCc2ccccc2)nc(NC(=N)Nc2ccc(Cl)cc2)n1 ?
active

Hi, sorry to bother you, what did the test record for O=C(C1CCN(c2nnc(-n3cccc3)s2)CC1)N1CCC(Cc2ccccc2)CC1 ?
inactive

Hi, sorry to bother you, what did the test record for COc1ccc(C2=NCCN2)cc1-c1cn(-c2cccc(C3=NCCN3)c2)nn1 ?
inactive

Hi, sorry to bother you, what did the test record for CC[P](CC)(CC)=[Au][S][C@H]1O[C@@H](COC(C)=O)[C@H](OC(C)=O)[C@@H](OC(C)=O)[C@@H]1OC(C)=O ?
active

Hi, sorry to bother you, what did the test record for Cc1ccc2[nH]c3c(NCCN(C)C)ncnc3c2c1 ?
inactive

Hi, sorry to bother you, what did the test record for N#Cc1ccc(-c2ccc(OCC(N)=O)cc2)cc1 ?
inactive

Hi, sorry to bother you, what did the test record for COc1ccc(OC(C)C(=O)Nc2ccc(Cl)cc2C)cc1 (stereo unspecified) ?
inactive
